Subject of test: HCV NS3 protease (full length NS34a) (Hepatitis C virus genotype 1b)
Construct: The protease activity of the full length NS34a was measured using a FRET-based assay; made in house
Sequence (P26663 1658-1711): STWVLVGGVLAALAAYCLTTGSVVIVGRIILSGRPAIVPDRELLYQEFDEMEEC
Sequence (P26663 1027-1657): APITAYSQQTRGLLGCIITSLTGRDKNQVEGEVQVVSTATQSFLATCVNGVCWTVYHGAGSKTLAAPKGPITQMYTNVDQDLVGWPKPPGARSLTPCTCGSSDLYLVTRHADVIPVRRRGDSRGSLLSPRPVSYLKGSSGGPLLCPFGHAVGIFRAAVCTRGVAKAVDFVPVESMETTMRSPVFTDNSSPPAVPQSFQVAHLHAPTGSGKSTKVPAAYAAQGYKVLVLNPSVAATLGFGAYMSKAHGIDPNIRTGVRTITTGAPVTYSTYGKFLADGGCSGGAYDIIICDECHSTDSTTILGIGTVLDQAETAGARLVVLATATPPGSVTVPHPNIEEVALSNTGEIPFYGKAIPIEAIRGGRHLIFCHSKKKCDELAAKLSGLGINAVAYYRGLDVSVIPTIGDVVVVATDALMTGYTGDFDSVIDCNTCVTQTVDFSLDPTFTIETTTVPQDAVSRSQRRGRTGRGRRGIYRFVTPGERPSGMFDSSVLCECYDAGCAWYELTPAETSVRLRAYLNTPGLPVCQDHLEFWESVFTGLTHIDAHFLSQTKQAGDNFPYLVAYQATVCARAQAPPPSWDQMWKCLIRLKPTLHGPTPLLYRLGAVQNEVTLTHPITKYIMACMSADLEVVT
Assay name: HCV NS3 protease assay (FRET, full length NS34a)
Assay type: biochemical
Assay conditions: protease activity of full length NS34a, FRET peptide substrate; read-out: Activity IC50
Counter-ions that a name gives are not always drawn.
Quantity measured: IC50 (µM)

- CC[C@@H](N[C@@H](C)CC(N)=O)c1ccc(Cl)c(Oc2cccc(NS(C)(=O)=O)c2)c1F: 0.42
- CC[C@@H](N[C@H](C)CC(N)=O)c1ccc(Cl)c(Oc2ccc([N+](=O)[O-])cc2)c1F: 5.4
- CC[C@@H](N[C@@H](C)c1cn[nH]c1)c1ccc(Cl)c(Oc2ccccc2)c1F [Example 145A, dihydrochloride]: 7.4
- CC[C@@H](N[C@@H](C)CC(=O)N[C@H](C)CO)c1ccc(Cl)c(Oc2ccccc2)c1F: 0.21
- CCC(NCCC(N)=O)c1ccc(F)c(Oc2ccccc2)c1F (centres unmarked): 0.95
- C[C@@H](CC(N)=O)NCc1ccc(F)c(Oc2ccccc2)c1F: 3.9
- CCc1ccc(Oc2c(Cl)ccc([C@H](N)CC)c2F)cc1: 6.9
- CC(C)C(N)c1ccc(F)c(Oc2ccccc2)c1F (centres unmarked) [Example 1, hydrochloride]: 2.5
- CC[C@@H](N[C@@H](C)CC(N)=O)c1ccc(Cl)c(Oc2ccc([N+](=O)[O-])c(OC)c2)c1F: 0.41
- CC[C@H](Nc1ncc[nH]1)c1ccc(Cl)c(Oc2ccccc2)c1F: 0.41
- CCC(NC(C)CC(=O)NC)c1ccc(F)c(Oc2ccccc2)c1F (centres unmarked): 3.2
- CC[C@@H](N)c1ccc(Cl)c(Oc2cccc(NC(=O)NCC(F)(F)F)c2)c1F: 7.7
- CCC(NCCO)c1ccc(F)c(Oc2ccccc2)c1F (centres unmarked) [Example 45, hydrochloride]: 1.7
- CC[C@H](NCCC(=O)NCCO)c1ccc(F)c(Oc2ccccc2)c1F: 0.91
- CC[C@@H](N[C@@H](C)CC(N)=O)c1ccc(Cl)c(Oc2ccc(CC#N)cc2)c1F: 0.072
- CC[C@@H](N)c1ccc(Cl)c(Oc2ccc(Cl)cc2)c1F: 1.7
- CC[C@@H](NCCC(N)=O)c1ccc(Cl)c(Oc2ccccc2)c1F: 0.84

----------
Subject of test: HCV NS3 protease (full length NS34a) (Hepatitis C virus genotype 1b)
Construct: The protease activity of the full length NS34a was measured using a FRET-based assay; made in house
Assay name: HCV NS3 protease assay (FRET, full length NS34a)
Assay type: biochemical
Assay conditions: protease activity of full length NS34a, FRET peptide substrate; read-out: Activity IC50
pIC50: −log10 of the molar value.
// reported pIC50 for each item listed
Quantity measured: pIC50

• N[C@H](CCO)c1ccc(Cl)c(Oc2ccccc2)c1F [Example 343] = 5.20
• CC[C@@H](N)c1ccc(F)c(Oc2ccccc2)c1F [Example 11] = 5.66
• C[C@H](CC(=O)NCCN)N[C@H](CC1CCOCC1)c1ccc(Cl)c(Oc2ccccc2)c1F [Example 278] = 5.41
• CC[C@@H](N[C@@H](C)CC(N)=O)c1ccc(Cl)c(Oc2ccc(N)c(C)c2)c1F [Example 127] = 6.96
• CC[C@@H](N)c1ccc(Cl)c(Oc2ccc(-c3cnco3)cc2)c1F [Example 203] = 5.80
• C[C@@H](CC(=O)NCCN)N[C@@H](CC1CCOCC1)c1ccc(Cl)c(Oc2ccccc2)c1F [Example 352] = 6.49
• CCC[C@@H](N[C@@H](C)CC(N)=O)c1ccc(Cl)c(Oc2ccccc2)c1F [Example 125] = 6.64
• CC[C@H](N)c1ccc(F)c(Oc2ccccc2)c1F [Example 52] = 5.74
• CCNC(=O)O[C@H](C)c1cccc(Oc2c(Cl)ccc([C@@H](N)CC)c2F)c1 [Example 139] = 5.89
